# System: HDM-specific T cells expanded from PBMCs of HDM-allergic individuals
# Assay explanation: T cell reactivity of peptides: IFN/IL-5 ELISPOT on in vitro expanded HDM-specific T cells
# Type: cell-based, human
# Experimental context: percentage of donors that produced a response against the peptide, 10 μg/mL
Value type: % responder (%)
Output spec: scalar in %, unitless text.

Recorded % responder, per entry:
Retrieve % responder measured for 119 (RYRFLAHLYTLFYHV; Immunogenic fragment) [compound 119] and print it.
10

Retrieve % responder measured for 121 (DIETQFMWGDSMLIA; Immunogenic fragment) [compound 121] and print it.
5

Retrieve % responder measured for 48 (EQYISGVILFDETVY; Immunogenic fragment) [compound 48] and print it.
20

Retrieve % responder measured for 102 (QLHYNLHNLYGFQEA; Immunogenic fragment) [compound 102] and print it.
10

Now consider the entry below.
Retrieve % responder measured for 133 (QFIYTTNNMLIIQTK; Immunogenic fragment) [compound 133] and print it.
5
